# System: A431-B1 cells
# Measurement Description: PrestoBlue viability assay, A431-B1 (A431-ABCB1) cells
# Conditions Used: read-out: IC50 / µM A431-B1; 72 h incubation
Value Kind: IC50 (µM)

>>> measurement("CCN(CC)Cc1ccc2cccnc2c1O")
4.99

(I) CN1CCN(Cc2cc(Cl)c3cccnc3c2O)CC1
(II) Oc1c(CN2CCCCC2)ccc2cccnc12
(III) CCN(CC)Cc1cc(Cl)c2cccnc2c1O
Req: Parameters: sort_field (IC50), sort_dir (desc). Returns: the labels arranged in the requested order.
Resp: I, II, III

---

# Tested on: MES-SA/Dx5 cells
# Measurement Description: PrestoBlue viability assay, MES-SA/Dx5 cells (MDR, P-gp positive)
# Conditions Used: Homo sapiens, MES-SA/Dx5, 72 h, read-out: IC50 / μM MES-SA/Dx5, absence of TQ; 72 h incubation
Recorded IC50, one value per entry.
Kindly answer with a numeric value in µM, unit omitted.

// worked examples, IC50 included
>>> measurement("Oc1c(C(c2cccnc2)N2CCOCC2)cc(Cl)c2cccnc12 (centres unmarked)")
32.9
>>> measurement("Oc1ccc(CN2CCc3ccccc3C2)c2cccnc12")
17
>>> measurement("CCOC(=O)C1CCN(Cc2ccc(O)c3ncccc23)CC1")
3.54
>>> measurement("Oc1c(CN2CCCCC2)ccc2cccnc12")
0.85

Req: Complete the entry with IC50 for Oc1c(CN2CCOCC2)ccc2cccnc12
Resp: 4.33

Req: Retrieve IC50 measured for CCN(CC)Cc1ccc(O)c2ncccc12 and print it.
Resp: 5.02

Req: Answer with reported IC50 of CC1CCCCN1Cc1cc(Cl)c2cccnc2c1O (centres unmarked)
Resp: 0.34
